Data provenance: patent US10662204B2

Collected IC50 values appear next to each entry.
Assayed Target: KRAS G12C (Homo sapiens, UniProt P01116, G12C)
Assay Info: Cell Activity Assay: accumulation of GDP-bound KRAS G12C in MIAPaCa-2 cells (Raf-1 RBD capture, MSD readout)
Assay type: cell-based
Design: endogenous in cells; host or cells: MIAPaCa-2
Condition: 6 hours, assay limit is 30.00
API: value field is a number in µM; no unit string.

Previously resolved entries follow.
[
  {
    "Compound": "C=CC(=O)N1CCN(c2nc(Oc3ccc(F)c4c3CN(C)CC4)nc3c(Oc4c(Cl)c(F)cc5[nH]ncc45)nccc23)CC1 [Example 54I]",
    "Assayed Target": "KRAS G12C (Homo sapiens, UniProt P01116, G12C)",
    "IC50, µM": 0.019
  },
  {
    "Compound": "C=CC(=O)N1CCN(c2ncnc3c(Nc4c(C)ccc5[nH]ncc45)nccc23)CC1 [Example 05]",
    "Assayed Target": "KRAS G12C (Homo sapiens, UniProt P01116, G12C)",
    "IC50, µM": 29.3
  },
  {
    "Compound": "C=CC(=O)N1CCN(c2nc(OC[C@H]3CCCN3C)nc3c(Oc4c(Cl)c(F)cc5[nH]ncc45)cccc23)CC1 [Example 20E]",
    "Assayed Target": "KRAS G12C (Homo sapiens, UniProt P01116, G12C)",
    "IC50, µM": 1.02
  },
  {
    "Compound": "C=CC(=O)N1CCN(c2ncnc3c(Oc4c(C)ccc5[nH]nc(Cl)c45)nccc23)CC1 [Example 16C]",
    "Assayed Target": "KRAS G12C (Homo sapiens, UniProt P01116, G12C)",
    "IC50, µM": 22.2
  },
  {
    "Compound": "C=CC(=O)N1CCN(c2nc(OC)nc3c(Oc4c(C)ccc5[nH]ncc45)nccc23)CC1 [Example 01B]",
    "Assayed Target": "KRAS G12C (Homo sapiens, UniProt P01116, G12C)",
    "IC50, µM": 16.9
  },
  {
    "Compound": "C=CC(=O)N1CCN(c2nc(OC[C@@H]3CCCN3C)nc3c(Oc4c(Cl)c(C)cc5[nH]ncc45)nccc23)CC1 [Example 09H]",
    "Assayed Target": "KRAS G12C (Homo sapiens, UniProt P01116, G12C)",
    "IC50, µM": 0.239
  },
  {
    "Compound": "C=CC(=O)N1CCN(c2nc(OCc3nncn3C)nc3c(Oc4c(C)ccc5[nH]ncc45)cccc23)CC1 [Example 07F]",
    "Assayed Target": "KRAS G12C (Homo sapiens, UniProt P01116, G12C)",
    "IC50, µM": 21.2
  },
  {
    "Compound": "C=CC(=O)N1CCN(c2ncnc3c(Oc4c(C)c(Cl)cc5[nH]ncc45)nc(C#N)cc23)C[C@H]1C [Example 27A]",
    "Assayed Target": "KRAS G12C (Homo sapiens, UniProt P01116, G12C)",
    "IC50, µM": 13.3
  }
]

Problem: Using the record for C=CC(=O)N1CCN(c2nc(N3CC4(C3)C(=O)NCN4C)nc3c(Oc4c(C)ccc5[nH]ncc45)cccc23)CC1 [Example 18F] , state its measured IC50.
Solution: 29.3

Problem: Please report IC50 for the following compound: C=CC(=O)N1CCN(c2nc(OCc3cscn3)nc3c(Oc4c(C)ccc5[nH]ncc45)cccc23)CC1 [Example 23F]
Solution: 0.944

Problem: Look up IC50 of C=CC(=O)N1CCN(c2nc(OC[C@@H]3C[C@H](F)CN3C)nc3c(Oc4c(Cl)c(F)cc5[nH]ncc45)nccc23)CC1 [Example 11H] and report it.
Solution: 0.237

Problem: Give reported IC50 value for C=CC(=O)N1CCN(c2ncnc3c(Oc4c(C)ccc5[nH]nc(C)c45)nccc23)CC1 [Example 17A]
Solution: 24.1

Problem: Please indicate IC50 recorded for C=CC(=O)N1CCN(c2nc(O[C@@H]3CN(C)C[C@H]3OCC)nc3c(Oc4c(Cl)c(F)cc5[nH]ncc45)nccc23)CC1 [Example 18I]
Solution: 0.093

Problem: Retrieve IC50 measured for C=CC(=O)N1CCN(c2nc(OCCN(C)C)nc3c(Oc4c(Cl)c(C)cc5[nH]ncc45)nccc23)CC1 [Example 05E] and print it.
Solution: 0.559

Problem: Look up and state reported IC50 for C=CC(=O)N1CCN(c2ncnc3c(Oc4c(C)ccc5[nH]ncc45)cccc23)[C@@H](C)C1 [Example 10C]
Solution: 5.21

---

Assayed Target: GDP-loaded KRAS (1-169) G12C, C51S, C80L, C118S (Homo sapiens, UniProt P01116, C118S/C51S/C80L/G12C)
Construct: GDP-loaded KRAS (1-169) G12C, C51S, C80L, C118S
Assay Info: Mass Spectrometry Reactivity Assay (MSRA): covalent adduct of compound and KRAS G12C, Percent Modification
Format: binding
Condition: 5.0 μM compound, 0.25 hr
Parameter MSRA (% modification) 5.0 μM 0.25 hr: see the listing below.
Provide the reading as a plain figure in %.

// worked examples, MSRA (% modification) 5.0 μM 0.25 hr included
[
  {
    "Molecule": "C=CC(=O)N1CCN(c2nc(OC[C@H]3CCOC3)nc3c(Oc4c(Cl)c(F)cc5[nH]ncc45)nccc23)CC1 [Example 04H]",
    "Test Value": 65
  },
  {
    "Molecule": "C=CC(=O)N1CCN(c2nc(OCc3cscn3)nc3c(Oc4c(C)ccc5[nH]ncc45)nccc23)CC1 [Example 22F]",
    "Test Value": 33
  },
  {
    "Molecule": "C=CC(=O)N1CCN(c2nc(O[C@@H]3CN(C)C[C@H]3OC)nc3c(Oc4c(Cl)c(F)cc5[nH]ncc45)nccc23)CC1 [Example 10I]",
    "Test Value": 82
  },
  {
    "Molecule": "C=CC(=O)N1CCN(c2nc(OCC(C)(C)O)nc3c(Oc4c(Cl)c(F)cc5[nH]ncc45)nc(Cl)cc23)CC1 [Example 13G]",
    "Test Value": 70
  },
  {
    "Molecule": "C=CC(=O)N1CCN(c2nc(OC[C@@H]3CCCN3C)nc3c(Oc4c(C)c(Cl)cc5[nH]ncc45)nccc23)CC1 [Example 13B]",
    "Test Value": 19
  }
]

Problem: // fetch MSRA (% modification) 5.0 μM 0.25 hr given entry C=CC(=O)N1CCN(c2nc(OC[C@]3(F)CCCN(C)C3)nc3c(Oc4c(Cl)c(F)cc5[nH]ncc45)nccc23)CC1 [Example 02I]
Solution: 81

Problem: Supply MSRA (% modification) 5.0 μM 0.25 hr value. Item: C=CC(=O)N1CCN(c2nc(O[C@H]3CN(C)C[C@@H]3OC)nc3c(Oc4c(Cl)c(F)cc5[nH]ncc45)nccc23)CC1 [Example 11I]
Solution: 32

---

Assayed Target: GDP-loaded KRAS (1-169) G12C, C51S, C80L, C118S (Homo sapiens, UniProt P01116, C118S/C51S/C80L/G12C)
Construct: GDP-loaded KRAS (1-169) G12C, C51S, C80L, C118S
Assay Info: Mass Spectrometry Reactivity Assay (MSRA): covalent adduct of compound and KRAS G12C, Percent Modification
Type: binding
Condition: 10 μM compound, 0.50 hr
Assay Readout: MSRA (% modification) 10 μM 0.50 hr (%)
Report only the number, with the unit % understood.

Reference set (5 entries):
[
  {
    "Compound": "C=CC(=O)N1CCN(c2ncnc3c(Oc4c(C)c(Cl)cc5[nH]ncc45)nccc23)C[C@@H]1C [Example 23A]",
    "MSRA (% modification) 10 μM 0.50 hr / %": 20
  },
  {
    "Compound": "C=CC(=O)N1CCN(c2ncnc3c(Oc4c(Cl)c(C)cc5[nH]ncc45)nccc23)C[C@@H]1C [Example 22A]",
    "MSRA (% modification) 10 μM 0.50 hr / %": 10
  },
  {
    "Compound": "C=CC(=O)N1CCN(c2nc(OCCN(C)C)nc3c(Oc4c(Cl)c(C)cc5[nH]ncc45)cccc23)CC1 [Example 15E]",
    "MSRA (% modification) 10 μM 0.50 hr / %": 74
  },
  {
    "Compound": "C=CC(=O)N1CCN(c2ncnc3c(Oc4c(C)ccc5[nH]ncc45)nc(C(F)(F)F)cc23)CC1 [Example 03A]",
    "MSRA (% modification) 10 μM 0.50 hr / %": 28
  },
  {
    "Compound": "C=CC(=O)N1CCN(c2ncnc3c(Oc4c(Br)ccc5[nH]ncc45)cccc23)CC1 [Example 11C]",
    "MSRA (% modification) 10 μM 0.50 hr / %": 26
  }
]

Problem: Look up MSRA (% modification) 10 μM 0.50 hr of C=CC(=O)N1CCN(c2nc(N3CC(N(C)C)C3)nc3c(Oc4c(Cl)c(F)cc5[nH]ncc45)nc(Cl)cc23)CC1 [Example 05G] and report it.
Solution: 82

Problem: Supply MSRA (% modification) 10 μM 0.50 hr value. Item: C=CC(=O)N1CCN(c2ncnc3c(Oc4c(C)c(C)cc5[nH]ncc45)nccc23)CC1 [Example 12A]
Solution: 38

Problem: For C=CC(=O)N1CCN(c2ncnc3c(Oc4c(C)ccc5[nH]ncc45)nccc23)CC1 [Example 01A] , write its MSRA (% modification) 10 μM 0.50 hr.
Solution: 11

Problem: Return reported MSRA (% modification) 10 μM 0.50 hr. Input compound: C=CC(=O)N1CCN(c2nc(NCCC(=O)NC)nc3c(Oc4c(C)ccc5[nH]ncc45)cccc23)CC1 [Example 13F]
Solution: 26

Problem: Please report the measured MSRA (% modification) 10 μM 0.50 hr for C=CC(=O)N1CCN(c2ncnc3c(Oc4c(C)ccc5[nH]nc(Cl)c45)nccc23)CC1 [Example 16C]
Solution: 7

Problem: Report MSRA (% modification) 10 μM 0.50 hr for C=CC(=O)N1CCN(c2ncnc3c(Oc4c(Cl)c(C)cc5[nH]ncc45)nccc23)CC1 [Example 11A]
Solution: 68

Problem: Give MSRA (% modification) 10 μM 0.50 hr for C=CC(=O)N1CCN(c2nc(OC[C@@H]3CCCN3C)nc3c(Oc4c(C)c(Cl)cc5[nH]ncc45)cccc23)CC1 [Example 22E]
Solution: 83

Problem: Tell me MSRA (% modification) 10 μM 0.50 hr reported for C=CC(=O)N1CCN(c2ncnc3c(Oc4c(Cl)ccc5[nH]ncc45)nc(C)cc23)CC1 [Example 05A]
Solution: 12
